Sequence of the target: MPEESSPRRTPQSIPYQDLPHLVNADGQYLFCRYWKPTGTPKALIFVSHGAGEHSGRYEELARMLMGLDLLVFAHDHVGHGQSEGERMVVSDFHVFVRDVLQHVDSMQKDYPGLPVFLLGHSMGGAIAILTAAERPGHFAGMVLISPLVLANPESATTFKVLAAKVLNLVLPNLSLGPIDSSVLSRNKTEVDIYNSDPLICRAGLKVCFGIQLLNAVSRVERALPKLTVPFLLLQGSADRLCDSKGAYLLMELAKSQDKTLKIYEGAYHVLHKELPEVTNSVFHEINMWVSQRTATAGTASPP
metric: IC50 (nM)

Task: Which IC50 is listed for CS(=O)(=O)c1cc(Cl)ccc1CC1CC2(CCN(C(=O)N3CC4(CC(c5nnc(C6CC6)[nH]5)C4)C3)C2)C1 (centres unmarked) ?
Result: 38.1

Task: Dear colleague, I am looking for the recorded IC50 of the following molecule: `O=C(N1CC2(CCC(S(=O)(=O)c3ccc(C(F)(F)F)cc3)CC2)C1)N1CC2(CC(c3nc(C4(O)CC4)n[nH]3)C2)C1`
Result: 9.81

Task: Which IC50 value belongs to `O=C(N1CC2(CC(c3nnc(C4CC4)[nH]3)C2)C1)N1CC2(C1)CN(c1cncc(F)c1)C2` ?
Result: 138

Task: Entry under review: `Cc1cc(C(F)(F)F)cnc1OC1CC2(CCN(C(=O)N3CC4(CC(c5nc(C6CC6)n[nH]5)C4)C3)CC2)C1` . Reported IC50?
Result: 0.08

Task: Recorded IC50 of `O=C(N1CC2(CC(c3nnc(C4CC4)[nH]3)C2)C1)N1CC2(CCN(Cc3ccc(C(F)(F)F)nn3)C2)C1` , please.
Result: 31.3

Task: Consider the molecule `O=C(N1CC(CN2CCC(F)(F)CC2)C1)N1CC2(CC(c3nnc(C4CC4)[nH]3)C2)C1` and give its measured IC50.
Result: 923

1. O=C(N1CC2(CC(c3ccc(C(F)(F)F)nc3)C2)C1)N1CC2(CC(c3nc(C4(O)CC4)n[nH]3)C2)C1
2. O=C(N1CC2(CC(CNC3(C(F)(F)F)COC3)C2)C1)N1CC2(CC(c3nnc(C4CC4)[nH]3)C2)C1
3. N#Cc1ccc(CC2CC3(C2)CN(C(=O)N2CC4(CC(c5nc(C6(F)CC6)n[nH]5)C4)C2)C3)cc1C(F)(F)F
4. O=C(N1CC(C23CC(COc4ccc(C(F)(F)F)cn4)(C2)C3)C1)N1CC2(CC(c3nc(C4CC4)n[nH]3)C2)C1
5. Cn1nc(C(F)(F)F)cc1CC1CC2(C1)CN(C(=O)N1CC3(CC(c4nc(C5CC5)n[nH]4)C3)C1)C2
Task: Output the entries ranked by IC50 from maximum down to minimum. Submit the labels in the order that the ranking request calls for.
Result: 1, 2, 5, 3, 4
(1: 38.4 nM, 2: 5.39 nM, 5: 0.39 nM, 3: 0.09 nM, 4: 0.04 nM)
